SYSTEM NAME: T1, HCV Core1-169 (hepatitis C virus (HCV-1), UniProt P26664 1-169)
T1 sequence: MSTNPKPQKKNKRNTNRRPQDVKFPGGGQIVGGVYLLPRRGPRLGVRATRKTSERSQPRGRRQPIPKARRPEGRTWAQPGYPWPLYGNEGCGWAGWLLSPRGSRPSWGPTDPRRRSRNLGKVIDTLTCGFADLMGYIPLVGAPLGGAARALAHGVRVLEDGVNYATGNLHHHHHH
METHOD NOTES: SPR sandwich, capture mAb C11-9
Listing of recorded expected percent binding by entry.
Give just the number in %; leave the unit off.

HCV 208A-605 (antibody, V domains shown) VH: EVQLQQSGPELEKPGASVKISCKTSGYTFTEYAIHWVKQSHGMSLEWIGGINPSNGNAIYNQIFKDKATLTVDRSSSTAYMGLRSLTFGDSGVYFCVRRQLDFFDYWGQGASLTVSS VL: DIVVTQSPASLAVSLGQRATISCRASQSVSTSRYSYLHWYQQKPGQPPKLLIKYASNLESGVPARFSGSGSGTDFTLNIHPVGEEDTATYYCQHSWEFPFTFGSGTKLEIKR    11.9

For record HCV 208B-547 (antibody, V domains shown) VH: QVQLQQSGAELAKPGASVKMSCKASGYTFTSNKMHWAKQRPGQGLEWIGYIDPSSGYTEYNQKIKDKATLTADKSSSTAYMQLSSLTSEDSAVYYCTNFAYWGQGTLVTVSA VL: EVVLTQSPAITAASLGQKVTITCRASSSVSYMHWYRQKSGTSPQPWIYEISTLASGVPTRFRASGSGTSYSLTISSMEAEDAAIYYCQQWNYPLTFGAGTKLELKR the listed expected percent binding is 4.9

For record HCV 208A-638 (antibody, V domains shown) VH: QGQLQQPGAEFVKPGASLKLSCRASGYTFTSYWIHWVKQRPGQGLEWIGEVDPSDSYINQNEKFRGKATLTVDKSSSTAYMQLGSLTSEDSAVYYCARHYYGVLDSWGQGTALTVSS VL: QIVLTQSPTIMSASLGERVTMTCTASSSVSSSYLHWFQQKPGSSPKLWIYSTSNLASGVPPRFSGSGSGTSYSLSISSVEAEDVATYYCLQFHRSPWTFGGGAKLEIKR the listed expected percent binding is 9.2

For record HCV 208A-133 (antibody, V domains shown) VH: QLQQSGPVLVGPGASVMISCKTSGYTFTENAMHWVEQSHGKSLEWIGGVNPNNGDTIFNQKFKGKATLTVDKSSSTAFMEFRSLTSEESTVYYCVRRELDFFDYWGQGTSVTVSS VL: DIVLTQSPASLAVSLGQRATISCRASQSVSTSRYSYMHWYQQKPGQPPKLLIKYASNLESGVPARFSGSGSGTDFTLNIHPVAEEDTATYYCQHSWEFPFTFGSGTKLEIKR the listed expected percent binding is 5.8
